Reference source: patent US7622441B2

Method: Serum naltrexone levels of rats orally dosed with BB301 polyserine-naltrexone conjugate vs. naltrexone (ELISA)
Details: Sprague-Dawley, rat, in vivo, po, 3.6 mg, Mean Serum Concentrations +/− SD, oral capsule, equal dose at time zero, 15 hours
Observable: concentration at 15 h (ng/mL)
Lab book: enter the figure in ng/mL, no units written.

Query block: // query concentration at 15 h value for entry O=C1CC[C@@]2(O)[C@H]3Cc4ccc(O)c5c4[C@@]2(CCN3CC2CC2)[C@H]1O5 [Naltrexone]
Result block: 2

----------
Method: Serum naltrexone levels of rats orally dosed with BB301 polyserine-naltrexone conjugate vs. naltrexone (ELISA)
Details: Sprague-Dawley, rat, in vivo, po, 1.8 mg, Mean Serum Concentrations +/− SD, oral capsule, ½ dose (1.8 mg) at 0 hours and at […], 0.5 hours
Observable: concentration at 0.5 h (ng/mL)
Lab book: enter the figure in ng/mL, no units written.

Query block: // query concentration at 0.5 h value for entry O=C1CC[C@@]2(O)[C@H]3Cc4ccc(O)c5c4[C@@]2(CCN3CC2CC2)[C@H]1O5 [Naltrexone]
Result block: 72

----------
Method: Serum naltrexone levels of rats orally dosed with BB301 polyserine-naltrexone conjugate vs. naltrexone (ELISA)
Details: Sprague-Dawley, rat, in vivo, po, 3.6 mg, Mean Serum Concentrations +/− SD, oral capsule, equal dose at time zero, 5 hours
Observable: concentration at 5 h (ng/mL)
Lab book: enter the figure in ng/mL, no units written.

Query block: // query concentration at 5 h value for entry O=C1CC[C@@]2(O)[C@H]3Cc4ccc(O)c5c4[C@@]2(CCN3CC2CC2)[C@H]1O5 [Naltrexone]
Result block: 56

----------
Method: Serum naltrexone levels of rats orally dosed with BB301 polyserine-naltrexone conjugate vs. naltrexone (ELISA)
Details: Sprague-Dawley, rat, in vivo, po, 3.6 mg, Mean Serum Concentrations +/− SD, oral capsule, equal dose at time zero, 0.5 hours
Observable: concentration at 0.5 h (ng/mL)
Lab book: enter the figure in ng/mL, no units written.

Query block: // query concentration at 0.5 h value for entry O=C1CC[C@@]2(O)[C@H]3Cc4ccc(O)c5c4[C@@]2(CCN3CC2CC2)[C@H]1O5 [Naltrexone]
Result block: 115

----------
Method: Serum naltrexone levels of rats orally dosed with BB301 polyserine-naltrexone conjugate vs. naltrexone (ELISA)
Details: Sprague-Dawley, rat, in vivo, po, 3.6 mg, Mean Serum Concentrations +/− SD, oral capsule, equal dose at time zero, 12 hours
Observable: concentration at 12 h (ng/mL)
Lab book: enter the figure in ng/mL, no units written.

Query block: // query concentration at 12 h value for entry O=C1CC[C@@]2(O)[C@H]3Cc4ccc(O)c5c4[C@@]2(CCN3CC2CC2)[C@H]1O5 [Naltrexone]
Result block: 2

----------
Method: Stability of narcotic conjugates in water (narcotic release, abuse resistance tests)
Type: physicochemical
Details: numbers based upon narcotic release
Description: It is also possible to further stabilize any unstable conjugates by tethering to a larger peptide. […] The conjugates are also stable at a wide range of pH's.
Note to self: H2O (24 h, RT) under 30 means label 1, ties and anything higher get label 0.

>  <Molecule>
COc1ccc2c3c1OC1C(OC(=O)OC[C@H]4OC(O)C(O)[C@H]4O)=CCC4[C@@H](C2)N(C)CC[C@]314.Cl (some centres unmarked) [Ribose-HC]

>  <Assigned Label>
label 1

$$$$
>  <Molecule>
COc1ccc2c3c1O[C@H]1C(OC(=O)[C@@H]4CCCN4)=CC[C@H]4[C@@H](C2)N(C)CC[C@]314 [Pro-HC, 6-O-Pro-Hydrocodone]

>  <Assigned Label>
label 0

$$$$

Query block: Find out if reported H2O (24 h, RT) for CCC(C)C(N)C(=O)OC1=CCC2C3Cc4ccc(OC)c5c4C2(CCN3C)C1O5 (centres unmarked) [Ile-HC] is less than 30
Result block: label 1

Query block: Could you do the same for COc1ccc2c3c1OC1C(OC(=O)C(N)CCC(=O)O)=CCC4C(C2)N(C)CCC314 (centres unmarked) [Glu-HC, 6-O-Glu-Hydrocodone] , please?
Result block: label 0

Query block: Could you do the same for COc1ccc2c3c1OC1C(OC(=O)C(C)(C)N)=CCC4C(C2)N(C)CCC314 (centres unmarked) [Aib-HC] , please?
Result block: label 1

Query block: Could you do the same for COc1ccc2c3c1O[C@H]1C(OC(=O)[C@@H](N)CC(C)C)=CC[C@H]4[C@@H](C2)N(C)CC[C@]314 [Leu-HC, Leu-Hydrocodone] , please?
Result block: label 1

Query block: Could you do the same for COc1ccc2c3c1OC1C(OC(=O)C(N)CO)=CCC4C(C2)N(C)CCC314 (centres unmarked) [Ser-HC] , please?
Result block: label 0

Query block: Could you do the same for COc1ccc2c3c1OC1C(OC(=O)CN)=CCC4C(C2)N(C)CCC314 (centres unmarked) [Gly-HC, 6-O-Gly-Hydrocodone] , please?
Result block: label 1

----------
Method: Serum naltrexone levels of rats orally dosed with BB301 polyserine-naltrexone conjugate vs. naltrexone (ELISA)
Details: Sprague-Dawley, rat, in vivo, po, 3.6 mg, Mean Serum Concentrations +/− SD, oral capsule, equal dose at time zero, 8 hours
Observable: concentration at 8 h (ng/mL)
Lab book: enter the figure in ng/mL, no units written.

Query block: // query concentration at 8 h value for entry O=C1CC[C@@]2(O)[C@H]3Cc4ccc(O)c5c4[C@@]2(CCN3CC2CC2)[C@H]1O5 [Naltrexone]
Result block: 7

----------
Method: Serum naltrexone levels of rats orally dosed with BB301 polyserine-naltrexone conjugate vs. naltrexone (ELISA)
Details: Sprague-Dawley, rat, in vivo, po, 1.8 mg, Mean Serum Concentrations +/− SD, oral capsule, ½ dose (1.8 mg) at 0 hours and at […], 24 hours
Observable: concentration at 24 h (ng/mL)
Lab book: enter the figure in ng/mL, no units written.

Query block: // query concentration at 24 h value for entry O=C1CC[C@@]2(O)[C@H]3Cc4ccc(O)c5c4[C@@]2(CCN3CC2CC2)[C@H]1O5 [Naltrexone]
Result block: 6

----------
Method: Pharmacokinetics of peptide-amphetamine conjugates by oral administration (serum amphetamine by ELISA)
Details: male, Sprague-Dawley, rat, in vivo, po
Counter-ions that a name gives are not always drawn.
Observable: AUC(0-t) (µg·h/mL)
Lab book: enter the figure in µg·h/mL, no units written.

Query block: // query AUC(0-t) value for entry C[C@H](N)Cc1ccccc1 [Amphetamine, d-amphetamine sulfate, reference compound]
Result block: 0.53

----------
Method: in vivo
Details: Sprague-Dawley, rat, po, 3.6 mg, Serum Concentrations of Individual Rats, oral capsule, dose equal to 3.6 mg naltrexone
Observable: concentration at 12 h (ng/mL)
Lab book: enter the figure in ng/mL, no units written.

Query block: // query concentration at 12 h value for entry O=C1CC[C@@]2(O)[C@H]3Cc4ccc(O)c5c4[C@@]2(CCN3CC2CC2)[C@H]1O5 [Naltrexone]
Result block: 1

----------
Method: Serum naltrexone levels of rats orally dosed with BB301 polyserine-naltrexone conjugate vs. naltrexone (ELISA)
Details: Sprague-Dawley, rat, in vivo, po, 3.6 mg, Mean Serum Concentrations +/− SD, oral capsule, equal dose at time zero, 24 hours
Observable: concentration at 24 h (ng/mL)
Lab book: enter the figure in ng/mL, no units written.

Query block: // query concentration at 24 h value for entry O=C1CC[C@@]2(O)[C@H]3Cc4ccc(O)c5c4[C@@]2(CCN3CC2CC2)[C@H]1O5 [Naltrexone]
Result block: 2

----------
Method: Serum naltrexone levels of rats orally dosed with BB301 polyserine-naltrexone conjugate vs. naltrexone (ELISA)
Details: Sprague-Dawley, rat, in vivo, po, 1.8 mg, Mean Serum Concentrations +/− SD, oral capsule, ½ dose (1.8 mg) at 0 hours and at […], 8 hours
Observable: concentration at 8 h (ng/mL)
Lab book: enter the figure in ng/mL, no units written.

Query block: // query concentration at 8 h value for entry O=C1CC[C@@]2(O)[C@H]3Cc4ccc(O)c5c4[C@@]2(CCN3CC2CC2)[C@H]1O5 [Naltrexone]
Result block: 68

----------
Method: Serum naltrexone levels of rats orally dosed with BB301 polyserine-naltrexone conjugate vs. naltrexone (ELISA)
Details: Sprague-Dawley, rat, in vivo, po, 3.6 mg
Observable: Cmax (ng/mL)
Lab book: enter the figure in ng/mL, no units written.

Query block: // query Cmax value for entry O=C1CC[C@@]2(O)[C@H]3Cc4ccc(O)c5c4[C@@]2(CCN3CC2CC2)[C@H]1O5 [Naltrexone]
Result block: 124

----------
Method: Serum naltrexone levels of rats orally dosed with BB301 polyserine-naltrexone conjugate vs. naltrexone (ELISA)
Details: Sprague-Dawley, rat, in vivo, po, 3.6 mg
Observable: AUC(0-t) (ng·h/mL)
Lab book: enter the figure in ng·h/mL, no units written.

Query block: // query AUC(0-t) value for entry O=C1CC[C@@]2(O)[C@H]3Cc4ccc(O)c5c4[C@@]2(CCN3CC2CC2)[C@H]1O5 [Naltrexone]
Result block: 477
